test system: SW-620; test: NCI tumour cell line growth inhibition, 48 h
Activity calls are given as the source filed them. Cut-off read from the data, not from the text of the source: active = GI50 up to about 1.1 µM and inactive = higher.
Result category, one only: active, inactive

Each molecule tested received a call. Report the one for "CN1CCCN2CCN(C)CCN(CC1)CC2" .
inactive

Each molecule tested received a call. Report the one for CC1C(c2ccccc2)=CCON1c1ccccc1 (stereo not drawn) .
inactive

Each molecule tested received a call. Report the one for "C/C(=N/NC(=S)Nc1ccccc1Cl)c1cccc(/C(C)=N\NC(=S)Nc2ccccc2Cl)n1" .
inactive

Each molecule tested received a call. Report the one for O=C(CC(=O)N1N=C(N2c3ccccc3Sc3ccccc32)CC1c1ccccc1)Nc1ccccc1Cl (stereo not drawn) .
inactive

Each molecule tested received a call. Report the one for "CS(=O)(=O)c1nc(N)nc2nc[nH]c12" .
inactive

Each molecule tested received a call. Report the one for "CC(=O)O[C@H]1C(=O)[C@@]2(C)[C@H]([C@H](OC(=O)c3ccccc3)[C@]3(O)C[C@H](OC(=O)[C@H](O)[C@@H](NC(=O)c4ccc(N)cc4)c4ccccc4)C(C)=C1C3(C)C)[C@]1(OC(C)=O)CO[C@@H]1C[C@@H]2O" .
active

Each molecule tested received a call. Report the one for CC(=O)O[C@H]1CCC2[C@@H]3CC[C@]4(C)CC(=O)C=C[C@]4(C)C3CC[C@@]21C (stereo partly drawn) .
inactive

Each molecule tested received a call. Report the one for "COc1cc(/N=N\c2cccc(S(=O)(=O)O)c2)c(C)cc1/N=N\c1ccc(/C=C/c2ccc(/N=[N+](/[O-])c3ccc(/C=C/c4ccc(/N=N\c5cc(C)c(/N=N/c6cccc(S(=O)(=O)O)c6)cc5OC)cc4)c(S(=O)(=O)O)c3)cc2S(=O)(=O)O)cc1" .
inactive

Each molecule tested received a call. Report the one for "N#CC1(c2ccccc2)CCN(C2(c3ccccc3)CCCCC2)CC1" .
inactive

Each molecule tested received a call. Report the one for "Cn1c(=O)c2ccc(-c3ccc(Br)cc3)nc2n(C)c1=O" .
inactive

Each molecule tested received a call. Report the one for "O=C1C(Cl)=C(N2CCN(c3ccccn3)CC2)C(=O)c2c(O)ccc(O)c21" .
active

Each molecule tested received a call. Report the one for "O=C(Nc1ccccc1)N(CCCCN(Cc1ccccc1)C(=O)Nc1ccccc1)Cc1ccccc1" .
inactive

Each molecule tested received a call. Report the one for CCOC(=O)COc1c(OC)cc(C2C3=C(COC3=O)Oc3cc4c(cc32)OCO4)cc1OC (stereo not drawn) .
active

Each molecule tested received a call. Report the one for "O=C1/C(=C/c2ccccc2)N=C(c2ccccc2)N1n1c(-c2ccccc2)nc2ccccc2c1=O" .
inactive

Each molecule tested received a call. Report the one for "O=C(/C=C/c1ccc(O)c(O)c1)OCCCc1ccccc1" .
inactive

Each molecule tested received a call. Report the one for O=C(O)/C=C(/C(=O)O)C12CCN3CC4=CCOC5CC(=O)NC1C5C4CC32 (stereo not drawn) .
inactive

Each molecule tested received a call. Report the one for C=C1C(=O)OC2CC(C)C3C=CC(=O)C3CC12 (stereo not drawn) .
active

Each molecule tested received a call. Report the one for "Cc1cccc2oc3c(CC(=O)O)cccc3c(=O)c12" .
inactive

Cited source: ChEMBL document CHEMBL1201862
